- measured.on: human somatostatin receptor subtype 5 (Homo sapiens, UniProt P35346)
- Construct: expressed in transfected cells
- Sequence (P35346 whole entry): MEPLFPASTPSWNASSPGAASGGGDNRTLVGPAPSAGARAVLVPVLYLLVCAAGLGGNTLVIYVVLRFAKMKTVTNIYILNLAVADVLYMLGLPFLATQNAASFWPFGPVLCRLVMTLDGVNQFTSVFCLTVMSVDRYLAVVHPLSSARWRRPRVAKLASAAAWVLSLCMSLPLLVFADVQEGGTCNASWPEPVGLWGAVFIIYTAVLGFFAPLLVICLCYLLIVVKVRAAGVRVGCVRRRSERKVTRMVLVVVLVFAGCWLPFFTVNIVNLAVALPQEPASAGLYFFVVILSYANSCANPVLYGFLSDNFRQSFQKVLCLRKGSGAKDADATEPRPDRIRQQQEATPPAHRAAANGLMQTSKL
- assay.details: cAMP assay for SST5R (inhibition of cAMP in CHO-K1 cells)
- Type: cell-based
- test.conditions: Table B; class symbols; SST5 receptor over SST2 receptor
- Excerpt: General overview: All five SSTR subtypes are Gi coupled G-protein coupled receptors (GPCRs) that lead to decreases in intracellular cyclic AMP (cAMP) when activated by an agonist. Therefore, measurement of intracellular cAMP levels can be used to assess whether compounds of the invention are agonists of SSTR subtypes (John Kelly, Troy Stevens, W. Joseph Thompson, and Roland Seifert, Current Protocols in Pharmacology, 2005, 2.2.1-2.2). One example of an intracellular cAMP assay is described below. […]
metric: Fold selectivity for SST5 vs SST2

{"smiles": "Cc1cc(C)cc(NC(=O)c2cncc(-c3ccnc(C)c3)c2N2CC[C@](C)(N)C2)c1", "Fold selectivity for SST5 vs SST2": "++ (++=100 to 499)"}
{"smiles": "CC1(NC(=O)c2cncc(-c3cc(F)cc(F)c3)c2N2CC[C@](C)(N)C2)CCC1", "Fold selectivity for SST5 vs SST2": "++ (++=100 to 499)"}
{"smiles": "C[C@]1(N)CCN(c2c(C(=O)NC3CC(F)(F)C3)cnc(C#N)c2-c2cc(F)cc(F)c2)C1", "Fold selectivity for SST5 vs SST2": "+++ (+++=>500)"}
{"smiles": "C[C@]1(N)CCN(c2c(C(=O)NCc3ccon3)cnc(C#N)c2-c2cc(F)cc(F)c2)C1", "Fold selectivity for SST5 vs SST2": "+++ (+++=>500)"}

Request: Given the compound COc1ncc(C(=O)NC2CC(F)(F)C2)c(N2CC[C@](C)(N)C2)c1-c1cc(F)cc(F)c1 , what is its reported Fold selectivity for SST5 vs SST2?
Result: +++ (+++=>500)

Request: Given the compound CC1(C)CC(NC(=O)c2cncc(-c3cc(F)cc(F)c3)c2N2CC[C@](C)(N)C2)C1 , what is its reported Fold selectivity for SST5 vs SST2?
Result: ++ (++=100 to 499)

Request: Given the compound Cc1ncc(C(=O)NC2CCC(F)(F)CC2)c(N2CC[C@H](N)C2)c1-c1cc(F)cc(Cl)c1 , what is its reported Fold selectivity for SST5 vs SST2?
Result: +++ (+++=>500)

Request: Given the compound C[C@]1(N)CCN(c2c(C(=O)NC3CCCCC3)cncc2-c2cc(F)cc(F)c2)C1 , what is its reported Fold selectivity for SST5 vs SST2?
Result: +++ (+++=>500)

---

Measured EC50 values are reported for all entries that follow.
- measured.on: human somatostatin receptor subtype 2 (Homo sapiens, UniProt P30874)
- Construct: expressed in transfected cells
- Sequence (P30874 whole entry): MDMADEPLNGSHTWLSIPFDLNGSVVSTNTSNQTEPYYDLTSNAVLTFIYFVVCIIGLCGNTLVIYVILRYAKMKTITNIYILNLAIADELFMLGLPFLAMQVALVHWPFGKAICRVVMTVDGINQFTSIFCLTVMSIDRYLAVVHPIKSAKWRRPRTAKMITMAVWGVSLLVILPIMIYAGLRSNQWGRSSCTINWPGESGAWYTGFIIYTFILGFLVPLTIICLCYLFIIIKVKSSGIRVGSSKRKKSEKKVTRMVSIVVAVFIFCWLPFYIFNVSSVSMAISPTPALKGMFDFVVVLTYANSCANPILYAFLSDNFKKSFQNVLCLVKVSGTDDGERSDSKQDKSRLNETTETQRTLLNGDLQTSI
- assay.details: cAMP assay for SST2R (inhibition of cAMP in CHO-K1 cells)
- Format: cell-based
- test.conditions: Table B; inhibition of cAMP via human SST2 receptor; read-out: SST2 potency

Known EC50 results, listed for orientation:
{"smiles": "C[C@]1(N)CCN(c2c(C(=O)NC3CCCCC3)ccnc2-c2cc(F)cc(F)c2)C1", "EC50": "> 1000 nM"}
{"smiles": "COc1ncc(C(=O)N[C@@H](C)C(F)(F)F)c(N2CC[C@](C)(N)C2)c1-c1c(C)noc1C", "EC50": "> 1000 nM"}

Proceed to the following item.
Request: // map Cc1ncc(C(=O)N[C@@H](C)C2CC2)c(N2CC[C@](C)(N)C2)c1-c1cncc(F)c1 to recorded EC50 (system: human somatostatin receptor subtype 2 (Homo sapiens, UniProt P30874))
Result: 100 to 1000 nM
